# TEST DESCRIPTION: Plasma IR-GIP and IR-xenin levels during and after peptide infusion
# Assay type: in vivo
# TEST SETTINGS: human, iv, 4 pmol ⋅ kg^−1 ⋅ min^−1
No end group written: not given here.
READOUT: half-life (min)
Answers are plain numbers, in min.

For MLTKFETKSARVKGLSFHPKRPWIL [xenin-25, Xenin-25] , what is its reported half-life? 2.5

Source of measurements: paper PMC3379667
